Hello, the source for this data is patent US20160237067A1, in case you need it.

MEASURED ON: human factor XIa (Homo sapiens, UniProt P03951)
Sequence (P03951 388-625 limits assumed): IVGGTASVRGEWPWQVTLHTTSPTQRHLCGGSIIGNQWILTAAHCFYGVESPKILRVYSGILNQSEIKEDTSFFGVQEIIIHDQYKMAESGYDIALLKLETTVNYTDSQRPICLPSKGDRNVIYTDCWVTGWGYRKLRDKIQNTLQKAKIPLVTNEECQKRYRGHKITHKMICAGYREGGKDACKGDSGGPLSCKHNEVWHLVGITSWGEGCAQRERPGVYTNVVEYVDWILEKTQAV
Sequence (P03951 19-387 partner limits assumed): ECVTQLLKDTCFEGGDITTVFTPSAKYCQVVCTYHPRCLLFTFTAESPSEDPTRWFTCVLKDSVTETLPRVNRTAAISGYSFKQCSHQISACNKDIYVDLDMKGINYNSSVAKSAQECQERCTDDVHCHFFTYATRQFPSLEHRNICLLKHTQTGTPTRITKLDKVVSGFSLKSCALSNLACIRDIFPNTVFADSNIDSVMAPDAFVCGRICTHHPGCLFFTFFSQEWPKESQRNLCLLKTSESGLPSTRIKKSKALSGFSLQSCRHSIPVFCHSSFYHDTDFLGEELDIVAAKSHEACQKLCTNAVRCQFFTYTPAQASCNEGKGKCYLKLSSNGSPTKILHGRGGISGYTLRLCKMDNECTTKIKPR
Structures can show the parent of a compound that is named as a salt.
Threshold 6 nM. IC50 below it: 1.0. IC50 at it or above: 0.0.

CCN(CC)CCNC(=O)c1cccc(-c2ccc(C[C@H](NC(=O)[C@H]3CC[C@H](CN)CC3)C(=O)Nc3ccc(-c4nn[nH]n4)cc3)cc2)c1 [Example 14, hydrochloride] | 0.0
CN1CCN(C(=O)c2cccc(-c3ccc(C[C@H](NC(=O)[C@H]4CC[C@H](CN)CC4)C(=O)Nc4ccc(-c5nnn[nH]5)cc4)cc3)c2)CC1 [Example 5, hydrochloride] | 0.0
Cc1ccc(S(=O)(=O)N(C)C)cc1-c1ccc(C[C@H](NC(=O)[C@H]2CC[C@H](CN)CC2)C(=O)Nc2ccc(-c3nnn[nH]3)cc2)cc1 [Example 1, hydrochloride] | 1.0
NC[C@H]1CC[C@H](C(=O)N[C@@H](Cc2ccc(-c3ccc(F)c(C(=O)NC4CCNCC4)c3)cc2)C(=O)Nc2ccc(-c3nn[nH]n3)cc2)CC1 [Example 35, hydrochloride] | 0.0
Cc1ccc(-c2ccc(C[C@H](NC(=O)[C@H]3CC[C@H](CN)CC3)C(=O)Nc3ccc(-c4nn[nH]n4)cc3)cc2)cc1C(=O)N1CCOCC1 [Example 38, hydrochloride] | 1.0
Cc1cc(C(=O)NC2CCC(N(C)C)CC2)cc(-c2ccc(C[C@H](NC(=O)[C@H]3CC[C@H](CN)CC3)C(=O)Nc3ccc(-c4nn[nH]n4)cc3)cc2)c1 (some centres unmarked) [Example 37, hydrochloride] | 0.0
NC[C@H]1CC[C@H](C(=O)N[C@@H](Cc2ccc(-c3cccc(OCCN4CCOCC4)c3)cc2)C(=O)Nc2ccc(-c3nn[nH]n3)cc2)CC1 [Example 6, hydrochloride] | 0.0
Cc1ccc(C(=O)NC2CCNCC2)cc1-c1ccc(C[C@H](NC(=O)[C@H]2CC[C@H](CN)CC2)C(=O)Nc2ccc(-c3nn[nH]n3)cc2)cc1 [Example 9, hydrochloride] | 0.0
Cc1cc(C(=O)NC2CCN(C)CC2)cc(-c2ccc(C[C@H](NC(=O)[C@H]3CC[C@H](CN)CC3)C(=O)Nc3ccc(-c4nn[nH]n4)cc3)cc2)c1C [Example 34, hydrochloride] | 1.0
CCN(CC)CCCNC(=O)c1ccc(C)c(-c2ccc(C[C@H](NC(=O)[C@H]3CC[C@H](CN)CC3)C(=O)Nc3ccc(-c4nn[nH]n4)cc3)cc2)c1 [Example 19, hydrochloride] | 0.0
Cc1ccc(S(=O)(=O)N(C)C)cc1-c1ccc(C[C@H](NC(=O)[C@H]2CC[C@H](CN)CC2)C(=O)Nc2ccc(-c3nnc(Cl)[nH]3)cc2)cc1 [Example 3, hydrochloride] | 1.0
CNC(=O)c1ccc(C)c(-c2ccc(C[C@H](NC(=O)[C@H]3CC[C@H](CN)CC3)C(=O)Nc3ccc(-c4nnc(C(F)(F)C(F)(F)C(=O)O)[nH]4)cc3)cc2)c1 [Example 41, hydrochloride] | 1.0
Cc1ccc(-c2ccc(C[C@H](NC(=O)[C@H]3CC[C@H](CN)CC3)C(=O)Nc3ccc(-c4nn[nH]n4)cc3)cc2)cc1NC(=O)C1CCOCC1 [Example 29, hydrochloride] | 0.0
NC[C@H]1CC[C@H](C(=O)N[C@@H](Cc2ccc(-c3cccc(S(N)(=O)=O)c3)cc2)C(=O)Nc2ccc(-c3nnn[nH]3)cc2)CC1 [Example 4, hydrochloride] | 1.0
Cc1cc(C(=O)NC2CCNCC2)cc(-c2ccc(C[C@H](NC(=O)[C@H]3CC[C@H](CN)CC3)C(=O)Nc3ccc(-c4nn[nH]n4)cc3)cc2)c1 [Example 40, hydrochloride] | 1.0
CCN(CC)CCNC(=O)c1ccc(C)c(-c2ccc(C[C@H](NC(=O)[C@H]3CC[C@H](CN)CC3)C(=O)Nc3ccc(-c4nn[nH]n4)cc3)cc2)c1 [Example 10, hydrochloride] | 0.0
Cc1c(F)cc(C(=O)NC(C)C)cc1-c1ccc(C[C@H](NC(=O)[C@H]2CC[C@H](CN)CC2)C(=O)Nc2ccc(-c3nn[nH]n3)cc2)cc1 [Example 30, hydrochloride] | 1.0
NC[C@H]1CC[C@H](C(=O)N[C@@H](Cc2ccc(-c3cccc(C(=O)N4CCOCC4)c3)cc2)C(=O)Nc2ccc(-c3nn[nH]n3)cc2)CC1 [Example 20, hydrochloride] | 1.0
